Molecular target: Melanin-concentrating hormone receptor 1 (Homo sapiens)
Sequence (Q99705 whole entry): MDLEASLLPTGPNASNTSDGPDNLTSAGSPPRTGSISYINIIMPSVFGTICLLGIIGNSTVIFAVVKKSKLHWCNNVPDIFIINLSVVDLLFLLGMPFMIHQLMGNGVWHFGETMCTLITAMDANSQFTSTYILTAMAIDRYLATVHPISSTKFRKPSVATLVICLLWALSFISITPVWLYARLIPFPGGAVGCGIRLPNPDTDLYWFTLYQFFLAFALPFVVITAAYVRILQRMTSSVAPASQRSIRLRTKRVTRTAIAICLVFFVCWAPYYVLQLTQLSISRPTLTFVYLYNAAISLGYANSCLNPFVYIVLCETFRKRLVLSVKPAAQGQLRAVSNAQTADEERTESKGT
Assay: Inhibition of MCH-mediated calcium influx in CHO cells expressing human MCHR1 by FLIPR assay
Type: functional, cell-based
Returns MET if the recorded Kb is greater than or equal to 9 nM, and NOT MET otherwise.

Example cases with answers are listed next.
[
  {
    "compound": "N#Cc1cccc([C@]23CC[C@@H](N(CCN4CC[C@H](O)C4)C(=O)Nc4ccc(F)c(C(F)(F)F)c4)C[C@H]2C3)c1",
    "discreteLabel": "MET"
  },
  {
    "compound": "CN1CCN(CCCN(C(=O)Nc2ccc(F)c(C(F)(F)F)c2)[C@@H]2CC[C@]3(c4ccc(C#N)cc4)C[C@H]23)CC1 (relative stereo)",
    "discreteLabel": "NOT MET"
  },
  {
    "compound": "CN1CCN(CCCN(C(=O)Nc2ccc(F)c(C(F)(F)F)c2)[C@@H]2CC[C@]3(c4ccc(F)cc4)C[C@H]23)CC1 (relative stereo)",
    "discreteLabel": "MET"
  }
]

Read the next record carefully.
Task item: Check if Kb >= 9 nM (inclusive). Item: COc1cccc([C@]23CC[C@@H](N(CCCN4CCN(C)CC4)C(=O)Nc4ccc(F)c(C(F)(F)F)c4)[C@H]2C3)c1 (relative stereo)
Reply: NOT MET

---

Assay: Ratio of drug level in brain against plasma in rat after 6 hrs at 10 mg/kg, po
Type: ADME, organism-based
Parameters: dose 10 mg/kg, route oral
The reader will find reported Kp at 6 h values listed item by item below.
Form: value (number only, do not type unit).

Task item: Retrieve Kp at 6 h measured for N#Cc1cccc([C@]23CC[C@@H](N(CCN4CC[C@H](O)C4)C(=O)Nc4ccc(F)c(C(F)(F)F)c4)C[C@H]2C3)c1 and print it.
Reply: 1.1

Task item: Retrieve Kp at 6 h measured for N#Cc1cccc([C@]23CC[C@@H](N(CCN4CC[C@@H](O)C4)C(=O)Nc4ccc(F)c(Cl)c4)C[C@H]2C3)c1 and print it.
Reply: 0.7

---

Experiment: AUC (0-6h) in rat at 10 mg/kg, po
Type: ADME, organism-based, Plasma
Design: time < 6 hr, dose 10 mg/kg, route oral
Conditions: plasma
observable: AUC(0-t) at 6 h (ng·h/mL)
The response must be a number in ng·h/mL with no trailing unit.

Recorded AUC(0-t) at 6 h, per entry:
[
  {
    "compound": "CN1CCN(CCN(C(=O)Nc2ccc(F)c(C(F)(F)F)c2)[C@@H]2CC[C@]3(c4cccc(C#N)c4)C[C@H]23)CC1 (relative stereo)",
    "unitInfo": "ng·h/mL",
    "AUC(0-t) at 6 h": 1460
  },
  {
    "compound": "CN1CCN(CCCN(C(=O)Nc2ccc(F)c(Cl)c2)[C@@H]2CC[C@]3(c4cccc(OC(F)(F)F)c4)C[C@H]23)CC1 (relative stereo)",
    "unitInfo": "ng·h/mL",
    "AUC(0-t) at 6 h": 504
  },
  {
    "compound": "CN1CCN(CCCN(C(=O)Nc2ccc(F)c(Cl)c2)[C@@H]2CC[C@]3(c4cccc(Cl)c4)C[C@H]23)CC1",
    "unitInfo": "ng·h/mL",
    "AUC(0-t) at 6 h": 436
  }
]

Task item: Retrieve AUC(0-t) at 6 h measured for CN1CCN(CCCN(C(=O)Nc2ccc(F)c(C(F)(F)F)c2)[C@@H]2CC[C@]3(c4cccc(F)c4)C[C@H]23)CC1 (relative stereo) and print it.
Reply: 888

Task item: Retrieve AUC(0-t) at 6 h measured for CN1CCN(CCCCN(C(=O)Nc2ccc(F)c(C(F)(F)F)c2)[C@@H]2CC[C@]3(c4cccc(C#N)c4)C[C@H]23)CC1 (relative stereo) and print it.
Reply: 1680
